- method.description: protein stability index of a GFP-peptide fusion (yeast GPS) (PSI 1-4); higher = more stable; sorted into four equal gates, so the index is relative within each strain
- assay.conditions: ubr1∆
assay.metric: protein stability index
API doc: respond with a numeric literal and nothing else, no unit.

Find the recorded protein stability index belonging to MKVEVDSFSGAKIYPGR [RPL24B] and report it.
2.92

If you can, please state the reported protein stability index value of KMEKKKSSSLSLESFMK [SNM1] .
2.97

Which protein stability index reading was recorded for the sequence LELLNQLDGFSSDDRVK [RPT5] ?
3.03

For the sequence shown here, YSPNTLGHPDNYIPGNP [COB] , give the reported protein stability index.
2.43

Which protein stability index is listed for DDNDVPGPLPDTDSKPS [YLR018C/POM34] ?
2.38

protein stability index for FEFGNMKATSNTLEEFE [FAS2] ?
3.23

Reported protein stability index for EMVKDRGYFITQEEVEL [RPB5] : what is it?
2.1

I have this sequence here, LLEQDTSTEKLYKLNDK [PRE9] , and I need its recorded protein stability index.
2.91

// protein stability index lookup, key: EFIAAVNNPQEETSHLL [RPN10]
2.82
